# maps each entry to its MIC S. aureus COL (MRSA)
Tested on: S. aureus COL (MRSA)
Experiment: microbe, parasite or virus in culture
Conditions: supplement CSV; 12.5% MH pH 7.4
No end group written: not given here.
experimental-readout: MIC S. aureus COL (MRSA) (µg/mL)

INSERT INTO results (sequence_chain, assayed_system, experimental_readout, sign_qualifier, reported_measurement) VALUES
  ('VDKPPYLPRPRPPRRIYNR [sr3N5Cterm-Onc] (VDKPPYLPRPRPPRRIYNR-NH2; also: residues 1-3 and 15-19 stereorandomized (1:1 L/D mixture))', 'S. aureus COL (MRSA)', 'MIC S. aureus COL (MRSA)', '=', 64),
  ('VDKPPYLPRPRPPRRIYNR [sr8Cterm-Onc] (VDKPPYLPRPRPPRRIYNR-NH2; also: residues 12-19 stereorandomized (1:1 L/D mixture))', 'S. aureus COL (MRSA)', 'MIC S. aureus COL (MRSA)', '>', 16),
  ('VDKPPYLPRPRPPRRIYNR [sr14Nterm-Onc] (VDKPPYLPRPRPPRRIYNR-NH2; also: residues 1-14 stereorandomized (1:1 L/D mixture))', 'S. aureus COL (MRSA)', 'MIC S. aureus COL (MRSA)', '>', 64),
  ('VDKPPYLPRPRPPRRIYNR [srP45-Onc] (VDKPPYLPRPRPPRRIYNR-NH2; also: residues 4-5 (Pro-Pro) stereorandomized (1:1 L/D mixture))', 'S. aureus COL (MRSA)', 'MIC S. aureus COL (MRSA)', '=', 64),
  ('VDKPPYLPRPRPPRRIYNR [sr9Cterm-Onc] (VDKPPYLPRPRPPRRIYNR-NH2; also: residues 11-19 stereorandomized (1:1 L/D mixture))', 'S. aureus COL (MRSA)', 'MIC S. aureus COL (MRSA)', '=', 32);

###

Tested on: S. aureus COL (MRSA)
Test: microbe, parasite or virus in culture
Conditions: S. aureus COL (MRSA); full Müller–Hinton medium; 16–20 h at 37 °C
No end group written: not given here.
# maps each entry to its MIC S. aureus, Full MHB
experimental-readout: MIC S. aureus, Full MHB

INSERT INTO measurements (substance, experimental_readout, reported_measurement) VALUES
  ('VDKPPYLPRPRPPRRIYNR [sr3N5Cterm-Onc] (VDKPPYLPRPRPPRRIYNR-NH2; also: residues 1-3 and 15-19 stereorandomized (1:1 L/D mixture))', 'MIC S. aureus, Full MHB', '>64 / 64 μg/mL'),
  ('VDKPPYLPRPRPPRRIYNR [sr9Cterm-Onc] (VDKPPYLPRPRPPRRIYNR-NH2; also: residues 11-19 stereorandomized (1:1 L/D mixture))', 'MIC S. aureus, Full MHB', '> 64 µg/mL'),
  ('VDKPPYLPRPRPPRRIYNR-NH2 [L-Onc, reference compound]', 'MIC S. aureus, Full MHB', '> 64 µg/mL');

###

# maps each entry to its MIC E. coli W3110
Test system: E. coli W3110
Test: microbe, parasite or virus in culture
Conditions: supplement CSV; 12.5% MH pH 7.4
No end group written: not given here.
experimental-readout: MIC E. coli W3110 (µg/mL)

INSERT INTO assay_data (sequence_chain, experimental_readout, result_unit, reported_measurement) VALUES
  ('VDKPPYLPRPRPPRRIYNR [sr8Cterm-Onc] (VDKPPYLPRPRPPRRIYNR-NH2; also: residues 12-19 stereorandomized (1:1 L/D mixture))', 'MIC E. coli W3110', 'µg/mL', 4),
  ('VDKPPYLPRPRPPRRIYNR [sr7Cterm-Onc] (VDKPPYLPRPRPPRRIYNR-NH2; also: residues 13-19 stereorandomized (1:1 L/D mixture))', 'MIC E. coli W3110', 'µg/mL', 1),
  ('VDKPPYLPRPRPPRRIYNR [sr6Cterm-Onc] (VDKPPYLPRPRPPRRIYNR-NH2; also: residues 14-19 stereorandomized (1:1 L/D mixture))', 'MIC E. coli W3110', 'µg/mL', 1);
